- target desc: human CGT (Homo sapiens, UniProt Q16880)
- Sequence (Q16880 21-541): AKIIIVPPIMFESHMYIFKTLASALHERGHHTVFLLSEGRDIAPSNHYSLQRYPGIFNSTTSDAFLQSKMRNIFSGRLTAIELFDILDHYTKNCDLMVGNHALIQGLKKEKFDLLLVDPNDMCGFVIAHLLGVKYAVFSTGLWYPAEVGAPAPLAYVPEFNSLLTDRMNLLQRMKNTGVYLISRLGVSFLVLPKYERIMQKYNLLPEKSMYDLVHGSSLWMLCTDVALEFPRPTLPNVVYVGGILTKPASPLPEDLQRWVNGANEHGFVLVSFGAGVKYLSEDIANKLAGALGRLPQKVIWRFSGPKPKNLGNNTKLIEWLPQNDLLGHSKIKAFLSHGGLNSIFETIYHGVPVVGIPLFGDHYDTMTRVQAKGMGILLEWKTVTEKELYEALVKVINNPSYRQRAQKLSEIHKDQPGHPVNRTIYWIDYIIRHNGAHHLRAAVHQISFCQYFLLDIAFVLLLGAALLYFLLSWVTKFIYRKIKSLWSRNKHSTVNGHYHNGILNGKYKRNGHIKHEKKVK
- assay: Assay 1: CGT Enzymatic Assay (RapidFire/MS/MS, 0.01% Tween 80)
- Type: biochemical
- measurement parameters: Table 1, Compounds of Formula (I) and Formula (II); CGT enzymatic assay; read-out: IC50
pIC50: −log10 of the molar value.
observable: pIC50

- compound: "CCCCC1(O)C(=O)N(c2ccc(Br)cc2)C(=O)N1c1ccc(Br)cc1 (stereo not shown)"
  observable: "pIC50"
  experimental result: "4.00 to 4.30"

Per the record, CCCC1N(c2ccc(Cl)cc2)C(=O)N(c2ccc(Cl)cc2)C1(O)c1cccc(C(F)(F)F)c1 (stereo not shown) has pIC50 of > 6.00

Per the record, CC[C@H]1N(c2ccc(Cl)cc2)C(=O)N(c2ccc(Cl)cc2)C1(O)c1cccc(C)c1 (stereo partly shown) has pIC50 of > 6.00

Per the record, CC[C@]1(C)N(c2ccc(Cl)cc2)C(=O)N(c2ccc(Cl)cc2)C1(O)c1cccc(OC(F)(F)F)c1 (single isomer, unassigned) has pIC50 of > 6.00

Per the record, C[C@H]1N(c2ccc(Br)cc2)C(=O)N(c2ccc(Br)cc2)C1(O)c1cccc(Cl)c1 (stereo partly shown) has pIC50 of > 6.00

Per the record, O=C1N(c2ccc(Cl)cc2)C(=O)C(O)(c2ccccc2)N1c1ccc(Cl)cc1 (stereo not shown) has pIC50 of 4.30 to 5.00

Per the record, O=C1N(c2ccc(Br)cc2)C(=O)C(O)(c2ccccc2)N1c1ccc(Br)cc1 (stereo not shown) has pIC50 of 4.30 to 5.00

====

- target desc: human CGT (Homo sapiens, UniProt Q16880)
- assay: CGT Enzyme Assay (Biological Example 2, RapidFire/MS/MS method with 0.01% Tween 80 added)
- Format: biochemical
- measurement parameters: enzymatic assay, CHO/CGT lysate
observable: IC50

Use the examples below as a reference point.
- molecule: "CC[C@]1(C)[C@@H](c2cccc(OC(F)(F)F)c2)N(c2ccc(Cl)cc2)C(=O)N1c1ccc(Cl)cc1"
  experimental result: "1 to 10 µM"
- molecule: "N#Cc1ccc(N2C(=O)N(c3ccc(C#N)cc3)C3(COC3)[C@@H]2c2cccc(OC(F)(F)F)c2)cc1"
  experimental result: "< 1 µM"
- molecule: "Cc1ccc(N2C(=O)N(c3ccc(C#N)cc3)[C@H](c3cccc(C#N)c3)C23COC3)cc1"
  experimental result: "10 to 30 µM"
- molecule: "O=C1N(c2ccc(Cl)cc2)[C@H]2CCC[C@@]2(c2cccc(C(F)F)c2)N1c1ccc(Cl)cc1"
  experimental result: "10 to 30 µM"
- molecule: "C[C@H]1[C@H](c2cccc(OC(F)(F)F)c2)N(c2ccc(Br)cc2)C(=O)N1c1ccc(Br)cc1"
  experimental result: "< 1 µM"
- molecule: "O=C1N(c2ccc(Cl)cc2)C2CCCCC2(c2cccc(OC(F)(F)F)c2)N1c1ccc(Cl)cc1 (centres unmarked)"
  experimental result: "10 to 30 µM"
- molecule: "CC[C@]1(C)[C@@H](c2cccc(C#N)c2)N(c2ccc(Cl)cc2)C(=O)N1c1ccc(Cl)cc1"
  experimental result: "1 to 10 µM"
- molecule: "C[C@]1(C(F)(F)F)[C@@H](c2cccc(OC(F)(F)F)c2)N(c2ccc(Cl)cc2)C(=O)N1c1ccc(Cl)cc1"
  experimental result: "1 to 10 µM"
- molecule: "CC1(C)[C@H](c2cccc(OC(F)(F)F)c2)N(c2ccc(Cl)cc2)C(=O)N1c1ccc(Cl)cc1"
  experimental result: "< 1 µM"
- molecule: "CC1(C)[C@@H](c2cccc(OC(F)(F)F)c2)N(c2ccc(Cl)cc2)C(=O)N1c1ccc(Cl)cc1"
  experimental result: "1 to 10 µM"

Per the record, CC1(C)[C@@H](c2cccc(Cl)c2)N(c2ccc(Cl)cc2)C(=O)N1c1ccc(Cl)cc1 has IC50 of 10 to 30 µM

Per the record, C[C@@]1(C(F)(F)F)[C@H](c2cccc(OC(F)(F)F)c2)N(c2ccc(Br)cc2)C(=O)N1c1ccc(C#N)cc1 has IC50 of 1 to 10 µM

Per the record, CCC[C@]1(C)[C@H](c2cccc(OC(F)(F)F)c2)N(c2ccc(C#N)cc2)C(=O)N1c1ccc(C#N)cc1 has IC50 of < 1 µM

Per the record, CC1(C)[C@H](c2cccc(OC(F)(F)F)c2)N(c2ccc(C#N)cc2)C(=O)N1c1ccc(Cl)cc1 has IC50 of < 1 µM
